# MEASURED ON: T1, 4H3041-bA
# T1 chain: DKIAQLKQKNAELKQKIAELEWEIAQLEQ
# ASSAY OVERVIEW: two-hybrid library CCNG1;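 note: natural log of median RNA to DNA barcode read ratio; higher means stronger binding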
MEASUREMENT KIND: interaction score

Reference set, count: 5
Ask: interaction score for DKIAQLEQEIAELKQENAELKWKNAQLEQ [4H2143-bA] ?
Reply: 0.0855

Ask: Item DKIAQLKQKNAELKQKIAELEWEIAQLEQ [4H3041-bA] has what recorded interaction score?
Reply: 0.985

Ask: Record request: interaction score value, item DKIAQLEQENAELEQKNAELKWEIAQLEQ [4H2233-bA]
Reply: 0.018

Ask: Record request: interaction score value, item DKIAQLKQENAELKQEIAELEWKNAQLKQ [4H2760-bA]
Reply: 0.518

Ask: Record request: interaction score value, item DKIAQLKQKIAELKQKNAELEWENAQLEQ [4H2931-bA]
Reply: -0.32

P. DKIAQLKQKIAELEQKIAELKWENAQLEQ [4H2859-bA]
Q. DKIAQLEQKNAELEQEIAELKWENAQLKQ [4H2444-bA]
Ask: // compare: P vs Q , metric interaction score, want the smaller // respond with label for picked entry
Reply: P
